# Test system: Aspergillus fumigatus
# assay details: Antifungal activity against Aspergillus fumigatus RCMB 02568 assessed as absence of turbidity after 48 hrs
# Format: functional
# experimental setup: RCMB 02568, 48 h
I'd appreciate it if you could supply MIC values for the items below.
Reply numerically in µg/mL, unit not repeated.

So for C=CCNc1sc(C(C)=O)c(N)c1C(=O)Nc1ccc(S(=O)(=O)Nc2onc(C)c2C)cc1 , the logged MIC turned out to be 0.98

So for Cc1noc(NS(=O)(=O)c2ccc(NC(=O)/C(C#N)=C/N(C)C)cc2)c1C , the logged MIC turned out to be 7.81

So for CCOc1ccc(N/N=C(\C#N)C(=O)Nc2ccc(S(=O)(=O)Nc3onc(C)c3C)cc2)cc1 , the logged MIC turned out to be 3.9

So for Cc1cc(C)n(-c2ccc(S(=O)(=O)Nc3onc(C)c3C)cc2)c(=O)c1C#N , the logged MIC turned out to be 0.24

So for Cc1noc(NS(=O)(=O)c2ccc(-n3c(S)c(C#N)c(-c4ccc(Cl)cc4)c(C#N)c3=O)cc2)c1C , the logged MIC turned out to be 0.98

###

# Tested on: Syncephalastrum racemosum
# assay details: Antifungal activity against Syncephalastrum racemosum RCMB 05922 assessed as absence of turbidity after 48 hrs
# Type: functional
# experimental setup: RCMB 05922, 48 h
measured attribute: MIC (µg/mL)
Reply numerically in µg/mL, unit not repeated.

So for Cc1noc(NS(=O)(=O)c2ccc(NC(=O)/C(C#N)=C/c3ccco3)cc2)c1C , the logged MIC turned out to be 500

So for COc1ccc(-c2c(C#N)c(S)n(-c3ccc(S(=O)(=O)Nc4onc(C)c4C)cc3)c(=O)c2C#N)cc1 , the logged MIC turned out to be 31.2

So for CC(=O)c1sc(NC23CC4CC(CC(C4)C2)C3)c(C(=O)Nc2ccc(S(=O)(=O)Nc3onc(C)c3C)cc2)c1N , the logged MIC turned out to be 0.007

So for COc1ccc(-c2c(C#N)c(N)n(-c3ccc(S(=O)(=O)Nc4onc(C)c4C)cc3)c(=O)c2C#N)cc1 , the logged MIC turned out to be 1.95

###

I'd appreciate it if you could supply MIC values for the items below.
# Tested on: Proteus vulgaris
# assay details: Antimicrobial activity against Proteus vulgaris RCMB 010085 assessed as absence of turbidity after 24 hrs
# Type: functional
# experimental setup: RCMB 010085, 24 h
Reply numerically in µg/mL, unit not repeated.

So for Cc1noc(NS(=O)(=O)c2ccc(NC(=O)/C(C#N)=C/c3ccc(Cl)cc3)cc2)c1C , the logged MIC turned out to be 3.9

So for Cc1cc(C)n(-c2ccc(S(=O)(=O)Nc3onc(C)c3C)cc2)c(=O)c1C#N , the logged MIC turned out to be 1.85

So for Cc1noc(NS(=O)(=O)c2ccc(-n3c(S)c(C#N)c(-c4ccc(Cl)cc4)c(C#N)c3=O)cc2)c1C , the logged MIC turned out to be 3.9

So for COc1ccc(-c2c(C#N)c(S)n(-c3ccc(S(=O)(=O)Nc4onc(C)c4C)cc3)c(=O)c2C#N)cc1 , the logged MIC turned out to be 3.9

So for Cc1noc(NS(=O)(=O)c2ccc(NC(=O)/C(C#N)=C/c3ccccc3)cc2)c1C , the logged MIC turned out to be 7.81

So for COc1ccc(-c2c(C#N)c(N)n(-c3ccc(S(=O)(=O)Nc4onc(C)c4C)cc3)c(=O)c2C#N)cc1 , the logged MIC turned out to be 15.6

So for Cc1noc(NS(=O)(=O)c2ccc(NC(=O)c3cn[nH]c3N)cc2)c1C , the logged MIC turned out to be 500

So for Cc1noc(NS(=O)(=O)c2ccc(-n3c(S)c(C#N)c(-c4cccnc4)c(C#N)c3=O)cc2)c1C , the logged MIC turned out to be 7.81

So for CC(=O)OC[C@H]1O[C@@H](Sc2c(C#N)c(-c3ccc(Cl)cc3)c(C#N)c(=O)n2-c2ccc(S(=O)(=O)Nc3onc(C)c3C)cc2)[C@H](OC(C)=O)[C@@H](OC(C)=O)[C@@H]1OC(C)=O , the logged MIC turned out to be 0.98

So for Cc1noc(NS(=O)(=O)c2ccc(NC(=O)/C(C#N)=C/c3cccnc3)cc2)c1C , the logged MIC turned out to be 3.9

So for COc1ccc(-c2[nH]nc(N)c2C(=O)Nc2ccc(S(=O)(=O)Nc3onc(C)c3C)cc2)cc1 , the logged MIC turned out to be 1.95

So for Cc1noc(NS(=O)(=O)c2ccc(-n3c(S)c(C#N)c(-c4ccco4)c(C#N)c3=O)cc2)c1C , the logged MIC turned out to be 7.81

So for CCOc1ccc(-n2nc(C(=O)Nc3ccc(S(=O)(=O)Nc4onc(C)c4C)cc3)c(N)c2C#N)cc1 , the logged MIC turned out to be 7.81

So for CNc1sc(C(C)=O)c(N)c1C(=O)Nc1ccc(S(=O)(=O)Nc2onc(C)c2C)cc1 , the logged MIC turned out to be 3.9

So for CC(=O)c1sc(NC23CC4CC(CC(C4)C2)C3)c(C(=O)Nc2ccc(S(=O)(=O)Nc3onc(C)c3C)cc2)c1N , the logged MIC turned out to be 15.6

###

# System: Escherichia coli
# assay details: Antimicrobial activity against Escherichia coli RCMB 010052 assessed as absence of turbidity after 24 hrs
# Type: functional
# experimental setup: RCMB 010052, 24 h
MIC vs 30 µg/mL: less than gives met; not less than gives not met.

## Task Answer whether the compound CC(=O)c1sc(NC23CC4CC(CC(C4)C2)C3)c(C(=O)Nc2ccc(S(=O)(=O)Nc3onc(C)c3C)cc2)c1N has MIC strictly less than 30 µg/mL
## Result met

## Task Answer whether the compound CCOc1ccc(N/N=C(\C#N)C(=O)Nc2ccc(S(=O)(=O)Nc3onc(C)c3C)cc2)cc1 has MIC strictly less than 30 µg/mL
## Result not met

## Task Answer whether the compound Cc1cc(C)n(-c2ccc(S(=O)(=O)Nc3onc(C)c3C)cc2)c(=O)c1C#N has MIC strictly less than 30 µg/mL
## Result met

## Task Answer whether the compound Cc1noc(NS(=O)(=O)c2ccc(NC(=O)/C(C#N)=N/Nc3ccccc3)cc2)c1C has MIC strictly less than 30 µg/mL
## Result not met

## Task Answer whether the compound Cc1noc(NS(=O)(=O)c2ccc(N)cc2)c1C has MIC strictly less than 30 µg/mL
## Result not met

###

# System: Aspergillus fumigatus
# assay details: Antifungal activity against Aspergillus fumigatus RCMB 02568 assessed as absence of turbidity after 48 hrs
# Format: functional
# experimental setup: RCMB 02568, 48 h
I'd appreciate it if you could supply MIC values for the items below.

So for Cc1noc(NS(=O)(=O)c2ccc(-n3c(S)c(C#N)c(-c4cccnc4)c(C#N)c3=O)cc2)c1C , the logged MIC turned out to be 0.98 µg/mL

So for CC(=O)OC[C@H]1O[C@@H](Sc2c(C#N)c(-c3ccc(Cl)cc3)c(C#N)c(=O)n2-c2ccc(S(=O)(=O)Nc3onc(C)c3C)cc2)[C@H](OC(C)=O)[C@@H](OC(C)=O)[C@@H]1OC(C)=O , the logged MIC turned out to be 0.49 µg/mL

So for COc1ccc(-c2c(C#N)c(N)n(-c3ccc(S(=O)(=O)Nc4onc(C)c4C)cc3)c(=O)c2C#N)cc1 , the logged MIC turned out to be 0.98 µg/mL

So for CNc1sc(C(C)=O)c(N)c1C(=O)Nc1ccc(S(=O)(=O)Nc2onc(C)c2C)cc1 , the logged MIC turned out to be 62.5 µg/mL

So for COc1ccc(-c2c(C#N)c(S)n(-c3ccc(S(=O)(=O)Nc4onc(C)c4C)cc3)c(=O)c2C#N)cc1 , the logged MIC turned out to be 0.98 µg/mL

So for Cc1noc(NS(=O)(=O)c2ccc(NC(=O)/C(C#N)=C/c3ccccc3)cc2)c1C , the logged MIC turned out to be 15.6 µg/mL

So for Cc1noc(NS(=O)(=O)c2ccc(-n3c(S)c(C#N)c(-c4ccco4)c(C#N)c3=O)cc2)c1C , the logged MIC turned out to be 0.49 µg/mL

So for COc1ccc(N/N=C(\C#N)C(=O)Nc2ccc(S(=O)(=O)Nc3onc(C)c3C)cc2)cc1 , the logged MIC turned out to be 31.2 µg/mL

So for Cc1noc(NS(=O)(=O)c2ccc(N)cc2)c1C [SULFISOXAZOLE] , the logged MIC turned out to be 62.5 µg/mL

So for Cc1noc(NS(=O)(=O)c2ccc(NC(=O)/C(C#N)=C/c3cccnc3)cc2)c1C , the logged MIC turned out to be 0.49 µg/mL

So for CC(=O)c1sc(NC23CC4CC(CC(C4)C2)C3)c(C(=O)Nc2ccc(S(=O)(=O)Nc3onc(C)c3C)cc2)c1N , the logged MIC turned out to be 0.06 µg/mL

So for CCOc1ccc(-n2nc(C(=O)Nc3ccc(S(=O)(=O)Nc4onc(C)c4C)cc3)c(N)c2C#N)cc1 , the logged MIC turned out to be 0.24 µg/mL

So for Cc1noc(NS(=O)(=O)c2ccc(NC(=O)/C(C#N)=C/c3ccc(Cl)cc3)cc2)c1C , the logged MIC turned out to be 0.98 µg/mL

So for Cc1noc(NS(=O)(=O)c2ccc(NC(=O)c3c(Nc4ccccc4)sc(C#N)c3N)cc2)c1C , the logged MIC turned out to be 31.2 µg/mL

So for Cc1noc(NS(=O)(=O)c2ccc(NC(=O)/C(C#N)=N/Nc3ccccc3)cc2)c1C , the logged MIC turned out to be 15.6 µg/mL

So for Cc1noc(NS(=O)(=O)c2ccc(NC(=O)c3cn[nH]c3N)cc2)c1C , the logged MIC turned out to be 7.81 µg/mL

So for COc1ccc(-c2[nH]nc(N)c2C(=O)Nc2ccc(S(=O)(=O)Nc3onc(C)c3C)cc2)cc1 , the logged MIC turned out to be 0.03 µg/mL

So for C[C@@H]1[C@H](O)[C@@H](C)/C=C/C=C/C=C/C=C/C=C/C=C/C=C/[C@H](O[C@@H]2O[C@H](C)[C@@H](O)[C@H](N)[C@@H]2O)C[C@@H]2O[C@](O)(C[C@@H](O)C[C@@H](O)[C@H](O)CC[C@@H](O)C[C@@H](O)CC(=O)O[C@H]1C)C[C@H](O)[C@H]2C(=O)O [AMPHOTERICIN B] , the logged MIC turned out to be 0.12 µg/mL

So for Cc1noc(NS(=O)(=O)c2ccc(NC(=O)/C(C#N)=C/c3ccco3)cc2)c1C , the logged MIC turned out to be 125 µg/mL
